Assay: Stability in mouse serum at 5 uM measured after 4 hrs by HPLC analysis
Format: ADME, cell-free
Conditions: mouse serum, read-out: Stability
Non-standard residues stand in square brackets, D forms with d. Residues, ends and D or L forms follow the SMILES beside them. Phg = N[C@H](C(=O)O)c1ccccc1
Value Kind: remaining at 4 h, 5 µM

Ask: # input compound: CC[C@H](C)[C@H](NC(=O)[C@H](CC(=O)O)NC(=O)[C@@H](NC(=O)[C@@H](NC(=O)[C@H](Cc1c[nH]c2ccccc12)NC(=O)[C@H](CCCCN)NC(=O)[C@@H](NC(C)=O)[C@@H](C)O)C(C)C)c1ccccc1)C(N)=O (Ac-TKWV[Phg]DI-NH2) ; wanted: its remaining at 4 h, 5 µM
Result: ~80%
